- testMethodNotes: Metabolic stability in dog liver microsomes assessed as half-life at 1 uM measured upto 240 mins
- Type: ADME, Canis lupus familiaris, Microsome
propertyMeasured: half-life at 1 µM (h)
Expressed in h, but write only the number.

Quick note, half-life at 1 µM for CC(=O)N1CC2(CC(Nc3cc4c(cn3)C3(CC3)CN(C[C@H](O)CN3CCc5ccccc5C3)C4=O)C2)C1 landed at 2.54

====

- testMethodNotes: Protein binding in monkey plasma
- Type: ADME, cell-free, Macaca mulatta
- assayContext: rhesus monkey, read-out: PPB (converted)
propertyMeasured: fraction unbound
Number, no unit, nothing else.

fraction unbound recorded for this compound, CC(=O)N1CC2(CC(Nc3cc4c(cn3)C3(CC3)CN(C[C@H](O)CN3CCc5ccccc5C3)C4=O)C2)C1 , is 0.11

====

- assayedTarget: Cytochrome P450 2C19 (Homo sapiens, UniProt P33261)
- Sequence (P33261 whole entry): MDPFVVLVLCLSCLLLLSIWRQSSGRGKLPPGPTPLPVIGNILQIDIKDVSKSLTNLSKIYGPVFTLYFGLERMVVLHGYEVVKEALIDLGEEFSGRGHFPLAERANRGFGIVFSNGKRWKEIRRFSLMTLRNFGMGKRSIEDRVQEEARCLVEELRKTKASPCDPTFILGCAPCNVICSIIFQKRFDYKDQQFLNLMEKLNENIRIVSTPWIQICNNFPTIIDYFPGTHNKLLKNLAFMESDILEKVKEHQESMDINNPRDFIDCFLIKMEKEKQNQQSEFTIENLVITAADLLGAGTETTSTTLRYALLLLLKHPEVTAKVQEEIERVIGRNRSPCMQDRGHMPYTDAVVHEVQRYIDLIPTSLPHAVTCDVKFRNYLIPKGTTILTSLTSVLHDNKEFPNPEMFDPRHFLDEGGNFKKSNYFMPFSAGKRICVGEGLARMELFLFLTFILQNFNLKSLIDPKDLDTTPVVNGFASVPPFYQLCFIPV
propertyMeasured: IC50

Entry CC(=O)N1CC2(CC(Nc3cc4c(cn3)C3(CC3)CN(C[C@H](O)CN3CCc5ccccc5C3)C4=O)C2)C1 , Cytochrome P450 2C19 (Homo sapiens, UniProt P33261) data, IC50 value: > 50 µM

====

- testMethodNotes: Tmax in Sprague-Dawley rat at 10 mg/kg, po by LC-MS/MS analysis
- Format: ADME, organism-based
- assayContext: Sprague-Dawley, in vivo, read-out: Tmax
propertyMeasured: Tmax (min)
Write the answer as a number in min, unit excluded.

CC(=O)N1CCC(Nc2cc3c(cn2)C2(CC2)CN(C[C@H](O)CN2CCc4ccccc4C2)C3=O)CC1: 24
CC(=O)N1CCC(Nc2ccc3c(c2)C(=O)N(C[C@H](O)CN2CCc4ccccc4C2)CC32CCC2)CC1: 18
CC(=O)N1CCC(Nc2cc(C(=O)NC[C@H](O)CN3CCc4ccccc4C3)ncn2)CC1: 78
CC(=O)N1CC2(CC(Nc3cc4c(cn3)C3(CC3)CN(C[C@H](O)CN3CCc5ccccc5C3)C4=O)C2)C1: 6

Kindly review the next compound as well.
CC(=O)N1CCC(Nc2ccc3c(c2)C(=O)N(C[C@H](O)CN2CCc4ccccc4C2)CC32CC2)CC1 has a reported Tmax of 18

====

- Tested on: T47D
- testMethodNotes: Antiproliferative activity against human T47D cells measured after 4 to 5 days by CCK-8 assay
- Type: functional, cell-based
propertyMeasured: IC50
Form entry: enter the amount, then its unit.

Record CC(=O)N1CC2(CC(Nc3cc4c(cn3)C3(CC3)CN(C[C@H](O)CN3CCc5ccccc5C3)C4=O)C2)C1 , field IC50: 2.25 nM

====

Below are molecules with their pIC50 as measured on Voltage-gated inwardly rectifying potassium channel KCNH2 (Homo sapiens, UniProt Q12809).
Sequence (Q12809 whole entry): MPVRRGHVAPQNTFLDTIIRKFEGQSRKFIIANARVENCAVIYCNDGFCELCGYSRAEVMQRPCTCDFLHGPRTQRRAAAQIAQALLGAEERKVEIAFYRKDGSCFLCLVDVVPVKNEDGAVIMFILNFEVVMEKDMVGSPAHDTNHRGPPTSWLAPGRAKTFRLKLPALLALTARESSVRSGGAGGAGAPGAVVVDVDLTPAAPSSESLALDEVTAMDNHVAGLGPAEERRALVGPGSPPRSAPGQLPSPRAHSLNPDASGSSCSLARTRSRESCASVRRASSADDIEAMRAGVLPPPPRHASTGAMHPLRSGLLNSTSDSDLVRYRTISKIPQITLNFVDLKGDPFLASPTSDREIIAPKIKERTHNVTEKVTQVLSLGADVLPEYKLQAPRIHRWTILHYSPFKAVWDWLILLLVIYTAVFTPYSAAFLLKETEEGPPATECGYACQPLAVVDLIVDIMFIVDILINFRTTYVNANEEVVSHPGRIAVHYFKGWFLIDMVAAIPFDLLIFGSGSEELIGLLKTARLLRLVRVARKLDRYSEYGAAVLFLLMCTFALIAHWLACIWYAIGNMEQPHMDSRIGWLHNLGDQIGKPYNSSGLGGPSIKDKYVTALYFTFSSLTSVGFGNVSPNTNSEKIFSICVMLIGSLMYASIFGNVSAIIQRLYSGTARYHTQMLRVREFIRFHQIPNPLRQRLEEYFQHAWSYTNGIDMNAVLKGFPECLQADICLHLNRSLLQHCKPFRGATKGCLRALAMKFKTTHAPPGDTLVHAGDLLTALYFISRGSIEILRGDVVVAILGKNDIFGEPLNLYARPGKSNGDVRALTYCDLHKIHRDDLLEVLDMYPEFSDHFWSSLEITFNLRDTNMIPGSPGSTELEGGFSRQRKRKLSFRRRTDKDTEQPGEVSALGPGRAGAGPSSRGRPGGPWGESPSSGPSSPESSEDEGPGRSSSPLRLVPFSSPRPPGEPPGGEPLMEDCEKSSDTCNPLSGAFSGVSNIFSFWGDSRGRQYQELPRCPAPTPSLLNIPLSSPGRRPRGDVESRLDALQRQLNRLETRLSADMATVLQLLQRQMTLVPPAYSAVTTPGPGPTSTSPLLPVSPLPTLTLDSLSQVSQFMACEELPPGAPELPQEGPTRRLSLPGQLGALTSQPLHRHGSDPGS
Worth noting: pIC50 values are minus log10 of concentrations stated in mol/L.

CC(=O)N1CCC(Nc2ccc3c(c2)C(=O)N(C[C@H](O)CN2CCc4ccccc4C2)CC32CCCC2)CC1: 6.46

Consider the record given below.
Form field pIC50 for item CC(=O)N1CCC(Nc2ccc3c(c2)C(=O)N(C[C@H](O)CN2CCc4ccccc4C2)CC32CCC2)CC1 on Voltage-gated inwardly rectifying potassium channel KCNH2 (Homo sapiens, UniProt Q12809): 6.34

====

Below are compounds with their IC50 as measured on Protein arginine N-methyltransferase 7 (Homo sapiens, UniProt Q9NVM4).
Sequence (Q9NVM4 whole entry): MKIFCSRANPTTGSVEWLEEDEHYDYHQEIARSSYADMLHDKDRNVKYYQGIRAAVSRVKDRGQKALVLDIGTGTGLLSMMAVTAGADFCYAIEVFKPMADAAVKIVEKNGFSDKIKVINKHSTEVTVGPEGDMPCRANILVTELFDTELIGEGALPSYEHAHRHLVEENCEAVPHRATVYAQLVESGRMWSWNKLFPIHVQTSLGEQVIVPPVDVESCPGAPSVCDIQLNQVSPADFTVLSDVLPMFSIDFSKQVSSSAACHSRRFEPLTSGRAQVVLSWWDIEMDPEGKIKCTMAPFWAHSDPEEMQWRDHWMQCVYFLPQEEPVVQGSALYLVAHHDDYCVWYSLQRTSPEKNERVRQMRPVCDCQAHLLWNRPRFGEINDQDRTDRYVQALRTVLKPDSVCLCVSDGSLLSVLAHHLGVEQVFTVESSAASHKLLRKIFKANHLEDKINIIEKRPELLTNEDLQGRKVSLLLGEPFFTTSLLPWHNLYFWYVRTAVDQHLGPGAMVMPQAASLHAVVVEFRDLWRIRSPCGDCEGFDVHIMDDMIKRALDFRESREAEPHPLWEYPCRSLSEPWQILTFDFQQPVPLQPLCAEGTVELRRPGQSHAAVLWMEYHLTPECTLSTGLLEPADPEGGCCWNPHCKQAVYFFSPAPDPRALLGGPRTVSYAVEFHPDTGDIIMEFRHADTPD

Before answering, review these 2 worked examples.
CC(=O)N1CC2(CC(Nc3cc4c(cn3)C3(CC3)CN(C[C@H](O)CN3CCc5ccccc5C3)C4=O)C2)C1: > 10 µM
CC(=O)N1CCC(Nc2cc(C(=O)NC[C@H](O)CN3CCc4ccccc4C3)ncn2)CC1: > 10 µM

The record that follows has no IC50 shown yet.
Let me check: C[S+](CC[C@H](N)C(=O)[O-])C[C@H]1O[C@@H](n2cnc3c(N)ncnc32)[C@H](O)[C@@H]1O (stereo partly drawn) , system Protein arginine N-methyltransferase 7 (Homo sapiens, UniProt Q9NVM4), measured IC50 is 0.491 µM
